Source: patent US20240067672A1

measurement.protocol: Determination of solubility (HPLC)
Type: physicochemical
assay.readout: solubility compared with that of the bulk drug (Icaritin)

Would you please look over these solved cases?
INSERT INTO results (molecule, assay_value) VALUES
  ('COc1ccc(-c2oc3c(CC=C(C)C)c(O)cc(O)c3c(=O)c2OC(=O)CCC(=O)OCc2cn([C@H]3O[C@@H](CO)[C@H](O)[C@@H](O)[C@@H]3O)nn2)cc1', 'improved effectively'),
  ('COc1ccc(-c2oc3c(CC=C(C)C)c(O)cc(O)c3c(=O)c2OC(=O)CCC(=O)OCCOCCOCCOCCOCc2cn(CCO[C@H]3O[C@@H](CO)[C@H](O)[C@@H](O)[C@@H]3O)nn2)cc1', 'improved effectively'),
  ('COc1ccc(-c2oc3c(CC=C(C)C)c(O)cc(O)c3c(=O)c2OC(=O)CCC(=O)OCc2cn(CCOCCO[C@H]3O[C@@H](CO)[C@H](O)[C@@H](O)[C@@H]3O)nn2)cc1', 'improved effectively'),
  ('COc1ccc(-c2oc3c(CC=C(C)C)c(O)cc(O)c3c(=O)c2OC(=O)CCC(=O)OCCN(CCOCc2cn(CCOCCO[C@H]3O[C@@H](CO)[C@H](O)[C@@H](O)[C@@H]3O)nn2)c2ccccc2)cc1', 'improved effectively'),
  ('COc1ccc(-c2oc3c(CC=C(C)C)c(O)cc(O)c3c(=O)c2OC(=O)CCC(=O)OCCOCCOCCOCc2cn(C3OC(CO)C(O)C(O)C3O)nn2)cc1 (stereo not shown)', 'improved effectively'),
  ('COc1ccc(-c2oc3c(CC=C(C)C)c(O)cc(O)c3c(=O)c2OC(=O)CCC(=O)OCCCOCc2cn(CCO[C@H]3O[C@@H](CO)[C@H](O)[C@@H](O)[C@@H]3O)nn2)cc1', 'improved effectively');

Now turn to the next molecule.
Entry under test: COc1ccc(-c2oc3c(CC=C(C)C)c(O)cc(O)c3c(=O)c2OC(=O)CCC(=O)OCc2cn(CCOC3OC(CO)C(O)C(O)C3O)nn2)cc1 (stereo not shown) . Its solubility compared with that of the bulk drug (Icaritin) was improved effectively

* * *

measurement.protocol: Determination of solubility (HPLC)
Format: physicochemical
Please enter True where Solubility, Water is greater than or equal to 8 µg/mL, and False where it is lower.

Request: Determine whether measured Solubility, Water meets or exceeds 8 µg/mL for COc1ccc(-c2oc3c(CC=C(C)C)c(O)cc(O)c3c(=O)c2OC(=O)CCC(=O)OCCOCc2cn(CCOC3OC(CO)C(O)C(O)C3O)nn2)cc1 (centres unmarked) [Compound 72]
Response: False

Request: Is it the case that COc1ccc(-c2oc3c(CC=C(C)C)c(O)cc(O)c3c(=O)c2OC(=O)CCC(=O)OCCCCOCc2cn(CCOC3OC(CO)C(O)C(O)C3O)nn2)cc1 (centres unmarked) [Compound 88] has Solubility, Water reaching or exceeding 8 µg/mL?
Response: False

* * *

System: HepG2 hepatoma cells
measurement.protocol: Anti-tumor activity in vitro, MTT method, HepG2
Format: cell-based, human
measurement.parameters: HepG2, 48 h, MTT; read-out: IC50 HepG2 48 h
pIC50: −log10 of the molar value.
Parameter pIC50: see the listing below.

INSERT INTO measurements (molecule, assay_value) VALUES
  ('COc1ccc(-c2oc3c(CC=C(C)C)c(O)cc(O)c3c(=O)c2OC(=O)CCC(=O)OCCOCCOCCOCc2cn(C3OC(CO)C(O)C(O)C3O)nn2)cc1 (stereo not drawn)', 4.99),
  ('COc1ccc(-c2oc3c(CC=C(C)C)c(O)cc(O)c3c(=O)c2OC(=O)CCC(=O)OCCCCOCc2cn(CCOCCOC3OC(CO)C(O)C(O)C3O)nn2)cc1 (stereo not drawn)', '< 4.00');

Just so you know, measured pIC50 for COc1ccc(-c2oc3c(CC=C(C)C)c(O)cc(O)c3c(=O)c2OC(=O)CCC(=O)OCCCCOCc2cn(CCOC3OC(CO)C(O)C(O)C3O)nn2)cc1 (stereo not drawn) came out at < 4.00

* * *

measurement.protocol: Determination of solubility (HPLC)
Format: physicochemical
measurement.parameters: 37 °C, aqueous with cosolvent or surfactant or cyclodextrin, thermodynamic from solid
Protocol: About 1.325 mg of Icaritin and the synthesized derivative were weighed and dissolved in 1.5 mL methanol respectively, then diluted with methanol into solutions of 10, 20, 50, 100, 150, 200, 500 μg/mL, and filtered over an organic-system filter head of 0.45 μm into sample bottles, obtaining the samples for test. […] The supernatants were taken into sample bottles and detected by HPLC. […]
Below is a list of entries, each paired with its recorded solubility value.

INSERT INTO measurements (mol, assay_value) VALUES
  ('COc1ccc(-c2oc3c(CC=C(C)C)c(O)cc(O)c3c(=O)c2OC(=O)CCC(=O)OCCOCCOCc2cn([C@H]3O[C@@H](CO)[C@H](O)[C@@H](O)[C@@H]3O)nn2)cc1', '1.08 µg/mL'),
  ('COc1ccc(-c2oc3c(CC=C(C)C)c(O)cc(O)c3c(=O)c2OC(=O)CCC(=O)OCCOCCOCCOCCOCc2cn(CCO[C@H]3O[C@@H](CO)[C@H](O)[C@@H](O)[C@@H]3O)nn2)cc1', '51.5 µg/mL');

For this compound ( COc1ccc(-c2oc3c(CC=C(C)C)c(O)cc(O)c3c(=O)c2OC(=O)CCC(=O)OCCOCCOCCOCc2cn(CCO[C@H]3O[C@@H](CO)[C@H](O)[C@@H](O)[C@@H]3O)nn2)cc1 ), measured solubility is 3.89 µg/mL

* * *

measurement.protocol: Determination of solubility (HPLC)
Type: physicochemical
measurement.parameters: 37 °C, water, thermodynamic from solid
assay.readout: solubility (mg/mL)
Answer in mg/mL, number only, no unit symbol.

These recorded examples may help you get a feel for the data.
INSERT INTO results (compound, units_label, assay_value) VALUES
  ('COc1ccc(-c2oc3c(CC=C(C)C)c(O)cc(O)c3c(=O)c2OC(=O)CCC(=O)OCCOCCOCc2cn([C@H]3O[C@@H](CO)[C@H](O)[C@@H](O)[C@@H]3O)nn2)cc1 [Compound 64]', 'mg/mL', 0.00224),
  ('COc1ccc(-c2oc3c(CC=C(C)C)c(O)cc(O)c3c(=O)c2OC(=O)CCC(=O)OCCN(CCOCc2cn(CCOCCO[C@H]3O[C@@H](CO)[C@H](O)[C@@H](O)[C@@H]3O)nn2)c2ccccc2)cc1 [Compound 105]', 'mg/mL', 0.0236);

Note to self: solubility recorded for COc1ccc(-c2oc3c(CC=C(C)C)c(O)cc(O)c3c(=O)c2OC(=O)CCC(=O)OCCOCCOCCOCCOCc2cn(CCO[C@H]3O[C@@H](CO)[C@H](O)[C@@H](O)[C@@H]3O)nn2)cc1 [Compound 51] was 0.0503

* * *

Tested on: SMMC7721 hepatoma cells
measurement.protocol: Anti-tumor activity in vitro, MTT method, SMMC7721
Assay type: cell-based, human
measurement.parameters: Homo sapiens, SMMC-7721; SMMC7721, 72 h, MTT; read-out: IC50 SMMC7721 72 h
IC50 values by entry
Give the value, in units of µM, as a plain number.

// below: answered molecules
INSERT INTO results (molecule, measurement_target, assay_value) VALUES
  ('COc1ccc(-c2oc3c(CC=C(C)C)c(O)cc(O)c3c(=O)c2OC(=O)CCC(=O)NCCCCCOCc2cn(C3O[C@H](CO)[C@@H](O)[C@H](O)[C@H]3O)nn2)cc1 (some centres unmarked)', 'SMMC7721 hepatoma cells', 22.2),
  ('COc1ccc(-c2oc3c(CC=C(C)C)c(O)cc(O)c3c(=O)c2OC(=O)CCC(=O)OCCOCCOCCOCCOCc2cn([C@H]3O[C@@H](CO)[C@H](O)[C@@H](O)[C@@H]3O)nn2)cc1', 'SMMC7721 hepatoma cells', 46.5);

// next entry
Quick note, IC50 for COc1ccc(-c2oc3c(CC=C(C)C)c(O)cc(O)c3c(=O)c2O)cc1 [Icaritin, reference compound] landed at 15

* * *

Entries and their solubility
measurement.protocol: Determination of solubility (HPLC)
Format: physicochemical
measurement.parameters: 37 °C, water, thermodynamic from solid
Respond with the bare value in µg/mL.

INSERT INTO measurements (compound, units_label, assay_value) VALUES
  ('COc1ccc(-c2oc3c(CC=C(C)C)c(O)cc(O)c3c(=O)c2OC(=O)CCC(=O)OCCOCCOCCOCCOCc2cn([C@H]3O[C@@H](CO)[C@H](O)[C@@H](O)[C@@H]3O)nn2)cc1 [Compound 50]', 'µg/mL', 4.55),
  ('COc1ccc(-c2oc3c(CC=C(C)C)c(O)cc(O)c3c(=O)c2OC(=O)CCC(=O)OCCCOCc2cn(CCO[C@H]3O[C@@H](CO)[C@H](O)[C@@H](O)[C@@H]3O)nn2)cc1 [Compound 96]', 'µg/mL', 16.9),
  ('COc1ccc(-c2oc3c(CC=C(C)C)c(O)cc(O)c3c(=O)c2OC(=O)CCC(=O)OCc2cn([C@H]3O[C@@H](CO)[C@H](O)[C@@H](O)[C@@H]3O)nn2)cc1 [Compound 35]', 'µg/mL', 12);

The recorded solubility for entry COc1ccc(-c2oc3c(CC=C(C)C)c(O)cc(O)c3c(=O)c2OC(=O)CCC(=O)OCc2cn(CCOCCO[C@H]3O[C@@H](CO)[C@H](O)[C@@H](O)[C@@H]3O)nn2)cc1 [Compound 44] equals 11.3

The reported value for COc1ccc(-c2oc3c(CC=C(C)C)c(O)cc(O)c3c(=O)c2OC(=O)CCC(=O)OCCOCCOCCOCc2cn(CCO[C@H]3O[C@@H](CO)[C@H](O)[C@@H](O)[C@@H]3O)nn2)cc1 [Compound 58] in terms of solubility is 3.64
